# SYSTEM UNDER TEST: T1, PUF4 RNA-binding domain (Saccharomyces cerevisiae, UniProt P25339 537-888)
# T1 sequence: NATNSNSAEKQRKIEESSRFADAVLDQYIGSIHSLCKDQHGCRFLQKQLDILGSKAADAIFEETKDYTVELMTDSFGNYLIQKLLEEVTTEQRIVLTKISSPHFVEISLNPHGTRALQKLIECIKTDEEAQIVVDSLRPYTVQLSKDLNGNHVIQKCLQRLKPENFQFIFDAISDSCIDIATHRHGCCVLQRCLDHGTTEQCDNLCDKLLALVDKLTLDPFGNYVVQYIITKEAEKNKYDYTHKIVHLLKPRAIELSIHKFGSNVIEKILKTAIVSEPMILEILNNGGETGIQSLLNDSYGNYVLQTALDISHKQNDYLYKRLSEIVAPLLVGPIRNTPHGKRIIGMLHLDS
# PROTOCOL: Mg; RNA-MaP; 20 mM Na-HEPES pH 7.4, 30 mM KOAc, 0.75 mM MgCl2, 0.1% Tween-20, 5% glycerol, 0.1 mg/mL BSA, 2 mM DTT; 25 C; 0.0125-409.6 nM protein
# COND: tags: N-His6-TEV cleaved; C-SNAP kept, Cy3B-labelled; label: tethered on chip by stalled RNA polymerase
Measured Kd, listed per entry.
REPORTED METRIC: Kd (nM)

{"columns": ["BINDER", "UNIT ABBREV", "VALUE PREFIX", "RECORDED MEASUREMENT"],
 "data": [
  ["UCUCUUUGUGUAUUAUUAAUUCUCUU (ssRNA) [Id_ii_S1_P5E.2_K5.1_C5.2_[C-2T]_[T-1G]_H5.1_A5.1_F5.1_T5.2_[T11A]_[A12T]]", "nM", "=", 4.68],
  ["Ic_S2_P4E.1_K4.1_C4.1_H4.1_A4.1_[A6T]_[T7G]_F4.1_[T8C]_[A9T]_T4.1 (ssRNA) RNA: UUUGAUUAAUAUGAUAUCGUUCUUUCUUGUAUUGCUUUCUUUCUCGAUAUCAUAUUAAUCUUU", "nM", "=", 536],
  ["ACAAACCCACACUAUAGCACAAAC (ssRNA) [Id_ii_S3_P3E.4_K3.3_C3.2_[T-1C]_H3.3_A3.1_F3.1_T3.2_[T9G]_[A10C]]", "nM", ">", 2300]
]}
